Reported koff values are given for each entry in this list.
Target: T1, recombinant human CD3ε-ECD His protein (human, UniProt P07766 23-126)
T1 construct: extracellular domain; also called human CD3ε-His; CD3ε antigen protein; not shown: His tag
T1 sequence (P07766 23-126): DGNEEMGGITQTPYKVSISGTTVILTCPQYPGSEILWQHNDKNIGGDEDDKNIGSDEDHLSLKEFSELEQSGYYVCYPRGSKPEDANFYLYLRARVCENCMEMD
Test: SPR (Biacore), antibody captured on Protein A chip
Provide only the numeric value, understood in s⁻¹.

binder	readout-unit	koff
40G5c-hIgG1 (antibody, V domains shown) VH: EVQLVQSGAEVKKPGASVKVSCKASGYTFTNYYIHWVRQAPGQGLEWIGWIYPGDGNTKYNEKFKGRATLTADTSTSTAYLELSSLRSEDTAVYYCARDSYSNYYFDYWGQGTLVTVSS VL: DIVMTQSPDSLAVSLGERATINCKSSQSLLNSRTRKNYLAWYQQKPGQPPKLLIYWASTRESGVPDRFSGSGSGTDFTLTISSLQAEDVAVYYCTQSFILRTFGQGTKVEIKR	s⁻¹	0.000321

Return value of koff for input 1-22.6 human-murine chimeric antibody (antibody, human IgG1, kappa, V domains shown) VH: QIPLVQSGPELKKPGETVKISCKTSGYTFTSYGMSWVKQAPGKGLKWMGWINTYSGVPTYADDFKGRFVFSLDTSASTAFLQINNLKNEDTATYFCARLKNNPFCWGQGSTLTVFS VL: DVLMTQSPLSLPVRLGDQASISCRSSQLILHSNGNTYLEWYLQKPGQSPKLLIYKVSNRFSGVPDRFSGSGSGTDFTLKISRVEAEDLGVYYCFQGSHFPWTFGGGTKLEIKR , no commentary.
0.000699
